subject-of-test: GT1a D168A NS3/4A protease (UniProt P27958, C1185S/D1194A, species not given)
Construct: Ki (nM) GT1a D168A NS3/4A Protease
Assay type: biochemical, Hepatitis C virus
particulars: read-out: Ki (nM) GT1a D168A NS3/4A Protease; Table 3
Field: label. Allowed values: 1 (yes) (Ki < 60 nM) or 0 (no) (Ki >= 60 nM).

Solved cases below.
{"columns": ["compound", "cat"],
 "data": [
  ["COc1ccc2nc(C)c(O[C@@H]3C[C@H]4C(=O)N[C@]5(C(=O)NS(=O)(=O)C6(C)CC6)C[C@H]5/C=C\\CCCCC[C@H](NC(=O)OC5CCCC5)C(=O)N4C3)nc2c1 [Compound 23b]", "1 (yes)"],
  ["COc1ccc2nc(Cl)c(O[C@@H]3C[C@H]4C(=O)N[C@]5(C(=O)NS(=O)(=O)C6(C)CC6)C[C@H]5/C=C\\CCCCC[C@H](NC(=O)OC5CCCC5)C(=O)N4C3)nc2c1 [Compound 23c]", "1 (yes)"]
]}

[Q] Is Ki strictly under 60 nM for the entry COc1ccc2nc(C(F)(F)F)c(O[C@@H]3C[C@H]4C(=O)N[C@]5(C(=O)NS(=O)(=O)C6(C)CC6)C[C@H]5/C=C\CCCCC[C@H](NC(=O)OC5CCCC5)C(=O)N4C3)nc2c1 [Compound 23d] ?
[A] 0 (no)

[Q] Is Ki strictly under 60 nM for the entry COc1ccc2nc(C(F)(F)F)c(O[C@@H]3C[C@H]4C(=O)N[C@]5(C(=O)NS(=O)(=O)C6CC6)C[C@H]5/C=C\CCCCC[C@H](NC(=O)OC(C)(C)C)C(=O)N4C3)nc2c1 [Compound 18d] ?
[A] 0 (no)

[Q] Is Ki strictly under 60 nM for the entry COc1ccc2nc(C(F)(F)F)c(O[C@@H]3C[C@H]4C(=O)N[C@]5(C(=O)NS(=O)(=O)C6(C)CC6)C[C@H]5/C=C\CCCCC[C@H](NC(=O)OC(C)(C)C)C(=O)N4C3)nc2c1 [Compound 19d] ?
[A] 0 (no)

[Q] Is Ki strictly under 60 nM for the entry CCc1nc2ccc(OC)cc2nc1O[C@@H]1C[C@H]2C(=O)N[C@]3(C(=O)NS(=O)(=O)C4(C)CC4)C[C@H]3/C=C\CCCCC[C@H](NC(=O)OC(C)(C)C)C(=O)N2C1 [Compound 19a] ?
[A] 1 (yes)
